test system: HeLa Kyoto; assay: thermal stability score vs G1/S (z-score of summed log2 fold changes over temperatures); higher = more thermally stable than in G1/S; conditions: cell cycle stage: mitosis;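 further: synchronized HeLa Kyoto cells, proteins quantified by TMT10plex mass spectrometry, three biological replicates, mitosis taken 0.5 h after nocodazole release, G1/S directly after double thymidine block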

{"columns": ["seq", "thermal stability score"],
 "data": [
  ["MFCVTPPELETKMNITKGGLVLFSANSNSSCMELSKKIAERLGVEMGKVQVYQEPNRETRVQIQESVRGKDVFIIQTVSKDVNTTIMELLIMVYACKTSCAKSIIGVIPYFPYSKQCKMRKRGSIVSKLLASMMCKAGLTHLITMDLHQKEIQGFFNIPVDNLRASPFLLQYIQEEIPDYRNAVIVAKSPASAKRAQSFAERLRLGIAVIHGEAQDAESDLVDGRHSPPMVRSVAAIHPSLEIPMLIPKEKPPITVVGDVGGRIAIIVDDIIDDVDSFLAAAETLKERGAYKIFVMATHGLLSSDAPRRIEESAIDEVVVTNTIPHEVQKLQCPKIKTVDISMILSEAIRRIHNGESMSYLFRNIGLDD [PRPSAP2]", -0.671],
  ["MTLESMMACCLSDEVKESKRINAEIEKQLRRDKRDARRELKLLLLGTGESGKSTFIKQMRIIHGAGYSEEDKRGFTKLVYQNIFTAMQAMIRAMETLKILYKYEQNKANALLIREVDVEKVTTFEHQYVSAIKTLWEDPGIQECYDRRREYQLSDSAKYYLTDVDRIATLGYLPTQQDVLRVRVPTTGIIEYPFDLENIIFRMVDVGGQRSERRKWIHCFENVTSIMFLVALSEYDQVLVESDNENRMEESKALFRTIITYPWFQNSSVILFLNKKDLLEDKILYSHLVDYFPEFDGPQRDAQAAREFILKMFVDLNPDSDKIIYSHFTCATDTENIRFVFAAVKDTILQLNLKEYNLV [GNA11]", 0.911],
  ["MSGCDAREGDCCSRRCGAQDKEHPRYLIPELCKQFYHLGWVTGTGGGISLKHGDEIYIAPSGVQKERIQPEDMFVCDINEKDISGPSPSKKLKKSQCTPLFMNAYTMRGAGAVIHTHSKAAVMATLLFPGREFKITHQEMIKGIKKCTSGGYYRYDDMLVVPIIENTPEEKDLKDRMAHAMNEYPDSCAVLVRRHGVYVWGETWEKAKTMCECYDYLFDIAVSMKKVGLDPSQLPVGENGIV [APIP]", -2.26],
  ["MDDKELIEYFKSQMKEDPDMASAVAAIRTLLEFLKRDKGETIQGLRANLTSAIETLCGVDSSVAVSSGGELFLRFISLASLEYSDYSKCKKIMIERGELFLRRISLSRNKIADLCHTFIKDGATILTHAYSRVVLRVLEAAVAAKKRFSVYVTESQPDLSGKKMAKALCHLNVPVTVVLDAAVGYIMEKADLVIVGAEGVVENGGIINKIGTNQMAVCAKAQNKPFYVVAESFKFVRLFPLNQQDVPDKFKYKADTLKVAQTGQDLKEEHPWVDYTAPSLITLLFTDLGVLTPSAVSDELIKLYL [EIF2B1]", -1.69],
  ["MLCRLGGRWLRPLPALQLWARDLPLAPVPTSGAKRPTLPVWAVAPVSAVHANGWYEALAASSPVRVAEEVLLGVHAATGLPWWGSILLSTVALRGAVTLPLAAYQHYILAKVENLQPEIKTIARHLNQEVAVRANQLGWSKRDARLTYLKNMRRLISELYVRDNCHPFKATVLVWIQLPMWIFMSFALRNLSTGAAHSEGFSVQEQLATGGILWFPDLTAPDSTWILPISVGVINLLIVEICALQKIGMSRFQTYITYFVRAMSVLMIPIAATVPSSIVLYWLCSSFVGLSQNLLLRSPGFRQLCRIPSTKSDSETPYKDIFAAFNTKFISRK [COX18]", -0.575]
]}

Source: the supplement of paper PMC5998384
